# Test system: R. SANGUINEUS
# assay remarks: Comparative tick control on dogs, R. sanguineus, percent control
# Format: in vivo, Rhipicephalus sanguineus
# Design: concentration or dose not given beside the values
# condition details: Study Day 9, single topical treatment
Let's look at some molecules and their measured Percent control R. sanguineus.
parameter measured: Percent control R. sanguineus (%)

molecule="N#Cc1nn(-c2c(Cl)cc(C(F)(F)F)cc2Cl)c(N)c1[S+]([O-])C(F)(F)F (stereo not shown)" observed_measurement=100
molecule="CC1(C)C(C=C(Cl)Cl)C1C(=O)OCc1cccc(Oc2ccccc2)c1 (stereo not shown)" observed_measurement=99.0
molecule=CO[C@H]1C[C@H](O[C@@H]2/C(C)=C/C[C@@H]3C[C@@H](C[C@]4(CC[C@H](C)[C@@H](C5CCCCC5)O4)O3)OC(=O)[C@@H]3C=C(C)/C(=N/O)[C@H]4OC/C(=C\C=C\[C@@H]2C)[C@]43O)O[C@@H](C)[C@@H]1O observed_measurement=95.6
molecule=O=[N+]([O-])N=C1NCCN1Cc1ccc(Cl)nc1 observed_measurement=66.6

----------
# Test system: FLEAS (Siphoneptera)
# assay remarks: Comparative flea control on dogs, percent control
# Assay type: in vivo
# Set-up: concentration or dose not given beside the values
# condition details: Day 14, single topical treatment
parameter measured: Percent control fleas

compound=O=[N+]([O-])N=C1NCCN1Cc1ccc(Cl)nc1 observed_measurement=100%
compound="CC1(C)C(C=C(Cl)Cl)C1C(=O)OCc1cccc(Oc2ccccc2)c1 (stereo not shown)" observed_measurement=71.9%
compound="N#Cc1nn(-c2c(Cl)cc(C(F)(F)F)cc2Cl)c(N)c1[S+]([O-])C(F)(F)F (stereo not shown)" observed_measurement=100%
compound=CO[C@H]1C[C@H](O[C@@H]2/C(C)=C/C[C@@H]3C[C@@H](C[C@]4(CC[C@H](C)[C@@H](C5CCCCC5)O4)O3)OC(=O)[C@@H]3C=C(C)/C(=N/O)[C@H]4OC/C(=C\C=C\[C@@H]2C)[C@]43O)O[C@@H](C)[C@@H]1O observed_measurement=99.7%
